Attribution: patent US8143227B2

experiment: Azithromycin levels in sebum (Sebutape patches); format: in vivo, human; settings: human, sebum, oral; 120 mg/day; Day 42; ng per sample divided by 1.38 mg; read-out: Sebum Concentration (median) ng/mg
Result type: concentration at 42 day

stdin: Would you mind telling me what concentration at 42 day value was observed for CC[C@H]1OC(=O)[C@H](C)[C@@H](O[C@H]2C[C@@](C)(OC)[C@@H](O)[C@H](C)O2)[C@H](C)[C@@H](O[C@@H]2O[C@H](C)C[C@H](N(C)C)[C@H]2O)[C@](C)(O)C[C@@H](C)CN(C)[C@H](C)[C@@H](O)[C@]1(C)O [Azithromycin] ?
stdout: ~640 ng/g

----------
Assay: Azithromycin levels in plasma
Settings: human, plasma, po, 80 mg/day
Experimental: Plasma levels of azithromycin were determined as follows. Thirty-nine patients were randomized into one of three treatment groups. Each patient received 40 mg (n=13), 80 mg (n=11), or 120 mg (n=15) of oral azithromycin daily. […] The amount of azithromycin in plasma was quantified using a validated high pressure liquid chromatographic assay with mass spectroscopy detection. […]
Result type: AUC (ng·h/mL)
# number only, unit ng·h/mL dropped from output

stdin: Would you mind telling me what AUC value was observed for CC[C@H]1OC(=O)[C@H](C)[C@@H](O[C@H]2C[C@@](C)(OC)[C@@H](O)[C@H](C)O2)[C@H](C)[C@@H](O[C@@H]2O[C@H](C)C[C@H](N(C)C)[C@H]2O)[C@](C)(O)C[C@@H](C)CN(C)[C@H](C)[C@@H](O)[C@]1(C)O [Azithromycin] ?
stdout: 528

----------
test: Azithromycin levels in plasma; conditions: human, plasma, po, 80 mg
Result type: Cmax (ng/mL)
# number only, unit ng/mL dropped from output

stdin: Would you mind telling me what Cmax value was observed for CC[C@H]1OC(=O)[C@H](C)[C@@H](O[C@H]2C[C@@](C)(OC)[C@@H](O)[C@H](C)O2)[C@H](C)[C@@H](O[C@@H]2O[C@H](C)C[C@H](N(C)C)[C@H]2O)[C@](C)(O)C[C@@H](C)CN(C)[C@H](C)[C@@H](O)[C@]1(C)O [Azithromycin] ?
stdout: 60.3

----------
experiment: Azithromycin levels in plasma; conditions: human, plasma, po, 120 mg
Result type: AUC(0-t) (ng·h/mL)
# number only, unit ng·h/mL dropped from output

stdin: Would you mind telling me what AUC(0-t) value was observed for "CC[C@H]1OC(=O)[C@H](C)[C@@H](O[C@H]2C[C@@](C)(OC)[C@@H](O)[C@H](C)O2)[C@H](C)[C@@H](O[C@@H]2O[C@H](C)C[C@H](N(C)C)[C@H]2O)[C@](C)(O)C[C@@H](C)CN(C)[C@H](C)[C@@H](O)[C@]1(C)O" ?
stdout: 433

----------
Assay: Azithromycin levels in plasma
Conditions: human, plasma, po, 80 mg
Procedure: Plasma levels of azithromycin were determined as follows. Thirty-nine patients were randomized into one of three treatment groups. Each patient received 40 mg (n=13), 80 mg (n=11), or 120 mg (n=15) of oral azithromycin daily. […] The amount of azithromycin in plasma was quantified using a validated high pressure liquid chromatographic assay with mass spectroscopy detection. […]
Result type: AUC(0-t)

stdin: Would you mind telling me what AUC(0-t) value was observed for CC[C@H]1OC(=O)[C@H](C)[C@@H](O[C@H]2C[C@@](C)(OC)[C@@H](O)[C@H](C)O2)[C@H](C)[C@@H](O[C@@H]2O[C@H](C)C[C@H](N(C)C)[C@H]2O)[C@](C)(O)C[C@@H](C)CN(C)[C@H](C)[C@@H](O)[C@]1(C)O [Azithromycin] ?
stdout: 0.456 µg·h/mL

----------
assay: Azithromycin levels in plasma; settings: human, plasma, po, 120 mg
Result type: Cmax (ng/mL)
# number only, unit ng/mL dropped from output

stdin: Would you mind telling me what Cmax value was observed for CC[C@H]1OC(=O)[C@H](C)[C@@H](O[C@H]2C[C@@](C)(OC)[C@@H](O)[C@H](C)O2)[C@H](C)[C@@H](O[C@@H]2O[C@H](C)C[C@H](N(C)C)[C@H]2O)[C@](C)(O)C[C@@H](C)CN(C)[C@H](C)[C@@H](O)[C@]1(C)O [Azithromycin] ?
stdout: 57.9

----------
Assay: Azithromycin levels in sebum (Sebutape patches)
Type: in vivo, human
Settings: human, sebum, oral; 120 mg/day; Day 42; ng/mg times 0.87 mg/μl; read-out: Sebum Concentration (median)
Description: Sebum was collected from the subjects of Example 1 by use of Sebutape® (CuDerm Corporation, Dallas Tex.). On study days 0, 21, 42, and 70, each subject placed three Sebutape® adhesive patches on each of the forehead, and left and right cheeks on the skin of the face and left the patches in place for 30 to 40 minutes. […] Each Sebutape® patch was analyzed for quantity in nanograms of azithromycin.
Result type: concentration at 42 day

stdin: Would you mind telling me what concentration at 42 day value was observed for CC[C@H]1OC(=O)[C@H](C)[C@@H](O[C@H]2C[C@@](C)(OC)[C@@H](O)[C@H](C)O2)[C@H](C)[C@@H](O[C@@H]2O[C@H](C)C[C@H](N(C)C)[C@H]2O)[C@](C)(O)C[C@@H](C)CN(C)[C@H](C)[C@@H](O)[C@]1(C)O [Azithromycin] ?
stdout: ~550 ng/mL

----------
Experiment: Azithromycin levels in plasma
Conditions: human, plasma, po, 40 mg/day
Description: Plasma levels of azithromycin were determined as follows. Thirty-nine patients were randomized into one of three treatment groups. Each patient received 40 mg (n=13), 80 mg (n=11), or 120 mg (n=15) of oral azithromycin daily. […] The amount of azithromycin in plasma was quantified using a validated high pressure liquid chromatographic assay with mass spectroscopy detection. […]
Result type: AUC (ng·h/mL)
# number only, unit ng·h/mL dropped from output

stdin: Would you mind telling me what AUC value was observed for "CC[C@H]1OC(=O)[C@H](C)[C@@H](O[C@H]2C[C@@](C)(OC)[C@@H](O)[C@H](C)O2)[C@H](C)[C@@H](O[C@@H]2O[C@H](C)C[C@H](N(C)C)[C@H]2O)[C@](C)(O)C[C@@H](C)CN(C)[C@H](C)[C@@H](O)[C@]1(C)O" ?
stdout: 132

----------
Test: Azithromycin levels in plasma
Conditions: human, plasma, po, 40 mg
Method: Plasma levels of azithromycin were determined as follows. Thirty-nine patients were randomized into one of three treatment groups. Each patient received 40 mg (n=13), 80 mg (n=11), or 120 mg (n=15) of oral azithromycin daily. […] The amount of azithromycin in plasma was quantified using a validated high pressure liquid chromatographic assay with mass spectroscopy detection. […]
Result type: AUC(0-t) (ng·h/mL)
# number only, unit ng·h/mL dropped from output

stdin: Would you mind telling me what AUC(0-t) value was observed for CC[C@H]1OC(=O)[C@H](C)[C@@H](O[C@H]2C[C@@](C)(OC)[C@@H](O)[C@H](C)O2)[C@H](C)[C@@H](O[C@@H]2O[C@H](C)C[C@H](N(C)C)[C@H]2O)[C@](C)(O)C[C@@H](C)CN(C)[C@H](C)[C@@H](O)[C@]1(C)O [Azithromycin] ?
stdout: 73.4

----------
assay: Azithromycin levels in plasma; conditions: human, plasma, po, 80 mg/day
Result type: Cmax (ng/mL)
# number only, unit ng/mL dropped from output

stdin: Would you mind telling me what Cmax value was observed for "CC[C@H]1OC(=O)[C@H](C)[C@@H](O[C@H]2C[C@@](C)(OC)[C@@H](O)[C@H](C)O2)[C@H](C)[C@@H](O[C@@H]2O[C@H](C)C[C@H](N(C)C)[C@H]2O)[C@](C)(O)C[C@@H](C)CN(C)[C@H](C)[C@@H](O)[C@]1(C)O" ?
stdout: 53.9
